The values you see were collected from ChEMBL document CHEMBL3616451.

system: Mycobacterium tuberculosis; assay: Anti-tubercular activity against rifampicin, isoniazid, ethambutol and pyrazinamide-sensitive dormant phage of Mycobacterium tuberculosis H37Ra ATCC 25177 by serial dilution method; type: functional, organism-based
MEASURED_METRIC: IC50

compound=CCCCCCc1cn([C@@H]2C(=O)[C@]3(C)[C@@H]([C@H](C)CCC(=O)OC)CC[C@H]3[C@H]3[C@H]2[C@@]2(C)CC[C@@H](OC(C)=O)C[C@H]2C[C@H]3OC(C)=O)nn1 recorded_result="0.17 µg/mL"
compound=COC(=O)CC[C@@H](C)[C@H]1CC[C@H]2[C@H]3[C@H]([C@H](n4nnc5ccccc54)C(=O)[C@]12C)[C@@]1(C)CC[C@@H](OC(C)=O)C[C@H]1C[C@H]3OC(C)=O recorded_result="1.27 µg/mL"
compound=NNC(=O)c1ccncc1 recorded_result="0.0023 µg/mL"
compound=CO[C@H]1/C=C/O[C@@]2(C)Oc3c(C)c(O)c4c(O)c(c(/C=N/N5CCN(C)CC5)c(O)c4c3C2=O)NC(=O)/C(C)=C\C=C\[C@H](C)[C@H](O)[C@@H](C)[C@@H](O)[C@@H](C)[C@H](OC(C)=O)[C@@H]1C recorded_result="0.0014 µg/mL"
compound="COC(=O)CC[C@@H](C)[C@H]1CC[C@H]2[C@H]3[C@H]([C@H](NC(=O)C(CO)NC(=O)OC(C)(C)C)C(=O)[C@]12C)[C@@]1(C)CC[C@@H](OC(C)=O)C[C@H]1C[C@H]3OC(C)=O (stereo partly specified)" recorded_result="6.16 µg/mL"
compound=COC(=O)CC[C@@H](C)[C@H]1CC[C@H]2[C@H]3[C@H]([C@H](NC(=O)[C@H]4CCCN4C(=O)OC(C)(C)C)C(=O)[C@]12C)[C@@]1(C)CC[C@@H](OC(C)=O)C[C@H]1C[C@H]3OC(C)=O recorded_result="2.25 µg/mL"

###

experiment: Cytotoxicity against human A549 cells after 48 hrs by MTT assay; assay type: cell-based; settings: A549 cells
The following compounds are shown together with reported GI50 at 48 h values.
MEASURED_METRIC: GI50 at 48 h (µg/mL)

smiles=COC(=O)CC[C@@H](C)[C@H]1CC[C@H]2[C@H]3[C@H]([C@H](NC(=O)[C@H]4CCCN4C(=O)OC(C)(C)C)C(=O)[C@]12C)[C@@]1(C)CC[C@@H](OC(C)=O)C[C@H]1C[C@H]3OC(C)=O measured_metric="GI50 at 48 h" quantity_unit=µg/mL censoring_qualifier== recorded_result=52
smiles=CC(=O)O[C@H]1C(=O)[C@@]2(C)[C@H]([C@H](OC(=O)c3ccccc3)[C@]3(O)C[C@H](OC(=O)[C@H](O)[C@@H](NC(=O)c4ccccc4)c4ccccc4)C(C)=C1C3(C)C)[C@]1(OC(C)=O)CO[C@@H]1C[C@@H]2O measured_metric="GI50 at 48 h" quantity_unit=µg/mL censoring_qualifier== recorded_result=0.0035
smiles=CCCCCCc1cn([C@@H]2C(=O)[C@]3(C)[C@@H]([C@H](C)CCC(=O)OC)CC[C@H]3[C@H]3[C@H]2[C@@]2(C)CC[C@@H](OC(C)=O)C[C@H]2C[C@H]3OC(C)=O)nn1 measured_metric="GI50 at 48 h" quantity_unit=µg/mL censoring_qualifier=> recorded_result=100

###

tested on: THP-1; assay: Cytotoxicity against human THP1 cells after 48 hrs by MTT assay; assay type: cell-based; settings: thp-1, 48 h
Documented GI90 across a set of compounds
MEASURED_METRIC: GI90

compound=COC(=O)CC[C@@H](C)[C@H]1CC[C@H]2[C@H]3[C@H]([C@H](n4nnc5ccccc54)C(=O)[C@]12C)[C@@]1(C)CC[C@@H](OC(C)=O)C[C@H]1C[C@H]3OC(C)=O target_of_assay=THP-1 recorded_result="> 100 µg/mL"
compound=COC(=O)CC[C@@H](C)[C@H]1CC[C@H]2[C@H]3[C@H]([C@H](NC(=O)[C@H]4CCCN4C(=O)OC(C)(C)C)C(=O)[C@]12C)[C@@]1(C)CC[C@@H](OC(C)=O)C[C@H]1C[C@H]3OC(C)=O target_of_assay=THP-1 recorded_result="> 100 µg/mL"
compound=CCCCCCc1cn([C@@H]2C(=O)[C@]3(C)[C@@H]([C@H](C)CCC(=O)OC)CC[C@H]3[C@H]3[C@H]2[C@@]2(C)CC[C@@H](OC(C)=O)C[C@H]2C[C@H]3OC(C)=O)nn1 target_of_assay=THP-1 recorded_result="> 100 µg/mL"
compound="COC(=O)CC[C@@H](C)[C@H]1CC[C@H]2[C@H]3[C@H]([C@H](NC(=O)C(CO)NC(=O)OC(C)(C)C)C(=O)[C@]12C)[C@@]1(C)CC[C@@H](OC(C)=O)C[C@H]1C[C@H]3OC(C)=O (stereo not given in full)" target_of_assay=THP-1 recorded_result="> 100 µg/mL"
compound="CC(=O)O[C@H]1C(=O)[C@@]2(C)[C@H]([C@H](OC(=O)c3ccccc3)[C@]3(O)C[C@H](OC(=O)[C@H](O)[C@@H](NC(=O)c4ccccc4)c4ccccc4)C(C)=C1C3(C)C)[C@]1(OC(C)=O)CO[C@@H]1C[C@@H]2O [PACLITAXEL]" target_of_assay=THP-1 recorded_result="5.814 µg/mL"

###

assay: Cytotoxicity against human PANC1 cells after 48 hrs by MTT assay; type: cell-based, PANC-1; settings: PANC-1 cells
MEASURED_METRIC: GI50 at 48 h (µg/mL)

molecule="COC(=O)CC[C@@H](C)[C@H]1CC[C@H]2[C@H]3[C@H]([C@H](NC(=O)C(CO)NC(=O)OC(C)(C)C)C(=O)[C@]12C)[C@@]1(C)CC[C@@H](OC(C)=O)C[C@H]1C[C@H]3OC(C)=O (some centres not stated)" measured_metric="GI50 at 48 h" censoring_qualifier=> recorded_result=100
molecule=CC(=O)O[C@H]1C(=O)[C@@]2(C)[C@H]([C@H](OC(=O)c3ccccc3)[C@]3(O)C[C@H](OC(=O)[C@H](O)[C@@H](NC(=O)c4ccccc4)c4ccccc4)C(C)=C1C3(C)C)[C@]1(OC(C)=O)CO[C@@H]1C[C@@H]2O measured_metric="GI50 at 48 h" censoring_qualifier== recorded_result=0.128

###

test system: Mycobacterium tuberculosis; assay: Anti-tubercular activity against rifampicin, isoniazid, ethambutol and pyrazinamide-sensitive dormant phage of Mycobacterium tuberculosis H37Ra ATCC 25177 by serial dilution method; format: functional, organism-based
Below, each entry is listed alongside its reported IC90.
MEASURED_METRIC: IC90 (µg/mL)

compound=CO[C@H]1/C=C/O[C@@]2(C)Oc3c(C)c(O)c4c(O)c(c(/C=N/N5CCN(C)CC5)c(O)c4c3C2=O)NC(=O)/C(C)=C\C=C\[C@H](C)[C@H](O)[C@@H](C)[C@@H](O)[C@@H](C)[C@H](OC(C)=O)[C@@H]1C measured_metric=IC90 recorded_result=0.043
compound=COC(=O)CC[C@@H](C)[C@H]1CC[C@H]2[C@H]3[C@H]([C@H](NC(=O)[C@H]4CCCN4C(=O)OC(C)(C)C)C(=O)[C@]12C)[C@@]1(C)CC[C@@H](OC(C)=O)C[C@H]1C[C@H]3OC(C)=O measured_metric=IC90 recorded_result=27
compound=NNC(=O)c1ccncc1 measured_metric=IC90 recorded_result=0.075
compound=CCCCCCc1cn([C@@H]2C(=O)[C@]3(C)[C@@H]([C@H](C)CCC(=O)OC)CC[C@H]3[C@H]3[C@H]2[C@@]2(C)CC[C@@H](OC(C)=O)C[C@H]2C[C@H]3OC(C)=O)nn1 measured_metric=IC90 recorded_result=2.43
compound="COC(=O)CC[C@@H](C)[C@H]1CC[C@H]2[C@H]3[C@H]([C@H](NC(=O)C(CO)NC(=O)OC(C)(C)C)C(=O)[C@]12C)[C@@]1(C)CC[C@@H](OC(C)=O)C[C@H]1C[C@H]3OC(C)=O (stereo partly specified)" measured_metric=IC90 recorded_result=26.3
compound=COC(=O)CC[C@@H](C)[C@H]1CC[C@H]2[C@H]3[C@H]([C@H](n4nnc5ccccc54)C(=O)[C@]12C)[C@@]1(C)CC[C@@H](OC(C)=O)C[C@H]1C[C@H]3OC(C)=O measured_metric=IC90 recorded_result=7.15

###

system: Pseudomonas fluorescens; assay: Antibacterial activity against Pseudomonas fluorescens ATCC 13525 assessed as growth inhibition at 30 ug/ml relative to control; assay type: functional; settings: read-out: GI
Overview of recorded inhibition of growth at 30 µg/mL for various compounds
MEASURED_METRIC: inhibition of growth at 30 µg/mL

compound=COC(=O)CC[C@@H](C)[C@H]1CC[C@H]2[C@H]3[C@H]([C@H](NC(=O)[C@H]4CCCN4)C(=O)[C@]12C)[C@@]1(C)CC[C@@H](OC(C)=O)C[C@H]1C[C@H]3OC(C)=O measured_metric="inhibition of growth at 30 µg/mL" recorded_result=20.1%
compound=COC(=O)CC[C@@H](C)[C@H]1CC[C@H]2[C@H]3[C@H]([C@H](n4cc(-c5ccccn5)nn4)C(=O)[C@]12C)[C@@]1(C)CC[C@@H](OC(C)=O)C[C@H]1C[C@H]3OC(C)=O measured_metric="inhibition of growth at 30 µg/mL" recorded_result=47.1%
compound=COC(=O)CC[C@@H](C)[C@H]1CC[C@H]2[C@H]3[C@H]([C@H](NC(C)C)C(=O)[C@]12C)[C@@]1(C)CC[C@@H](OC(C)=O)C[C@H]1C[C@H]3OC(C)=O measured_metric="inhibition of growth at 30 µg/mL" recorded_result=37.2%
compound="COC(=O)CC[C@@H](C)[C@H]1CC[C@H]2[C@H]3[C@H]([C@H](NC(=O)C(CO)NC(=O)OC(C)(C)C)C(=O)[C@]12C)[C@@]1(C)CC[C@@H](OC(C)=O)C[C@H]1C[C@H]3OC(C)=O (some centres undefined)" measured_metric="inhibition of growth at 30 µg/mL" recorded_result=29.9%
